system: NCI-H322M lung; assay: NCI-60 one-dose screen, 48 h (100 = growth as untreated, 0 = no growth, -100 = all killed); conditions: 10 µM unless noted
The panel holds about 83,000 compounds, 20% with a hit somewhere; the sample as a whole holds those more often.
Overview of recorded growth for various molecules

>  <molecule>
Brc1ccc(SSc2ccc(Br)cc2)cc1

>  <growth / %>
91.8

$$$$
>  <molecule>
O=C1OC(c2ccccc2)=N/C1=C\c1ccccc1

>  <growth / %>
96.2

$$$$
>  <molecule>
CCOC(=O)c1c(C)cc(=O)oc1C

>  <growth / %>
110

$$$$
>  <molecule>
OCC1OC(O)C(O)C(O)C1O (stereo not drawn)

>  <growth / %>
155

$$$$
>  <molecule>
NC(=O)NCCCC(N)C(=O)O (stereo not drawn)

>  <growth / %>
88.6

$$$$
>  <molecule>
CC1=C/C(O)CC(=O)Cc2nc(co2)C(=O)N2CCC=C2C(=O)OC(C(C)C)C(C)/C=C\C(=O)NC/C=C\1 (stereo not drawn)

>  <growth / %>
102

$$$$
>  <molecule>
COc1cc(C(O)C2C(=O)OCC2C2(c3ccc4c(c3)OCO4)SCCCS2)cc(OC)c1OC (stereo not drawn)

>  <growth / %>
104

$$$$
>  <molecule>
CC(=O)OC(C)C(=O)NCC(C)O (stereo not drawn)

>  <growth / %>
90.7

$$$$
>  <molecule>
Cn1cnc([N+](=O)[O-])c1Sc1ncn[nH]1

>  <growth / %>
101

$$$$
>  <molecule>
c1ccc(-c2nc3ccccc3s2)cc1

>  <growth / %>
81.1

$$$$
>  <molecule>
CN(C)CC1CCCCCC(CN(C)C)C1=O (stereo not drawn)

>  <growth / %>
116

$$$$
>  <molecule>
Oc1ccc(Cc2ccccc2Cl)c(O)c1

>  <growth / %>
86.5

$$$$
>  <molecule>
Cc1cc(-c2cc(C)c(O)c(C)c2)cc(C)c1O

>  <growth / %>
93.7

$$$$
>  <molecule>
CCCCCCCCCCCCCCCc1ccc(N)c(OC2OC(CO)C(O)C(O)C2O)c1 (stereo not drawn)

>  <growth / %>
77.1

$$$$
>  <molecule>
NN1CCOC(c2ccccc2)C1 (stereo not drawn)

>  <growth / %>
97.7

$$$$
>  <molecule>
ClCCOCCOc1ccc(C2CCCCC2)cc1

>  <growth / %>
121

$$$$
>  <molecule>
CC1CCC(C(C)C)C(NNC(N)=O)C1 (stereo not drawn)

>  <growth / %>
102

$$$$
>  <molecule>
c1ccc(CNCCNCc2ccccc2)cc1

>  <growth / %>
106

$$$$
>  <molecule>
Nc1nc(N)c2[nH]cnc2n1

>  <growth / %>
111

$$$$
>  <molecule>
Fc1ccc([I+]c2ccc(F)cc2)cc1

>  <growth / %>
76.1

$$$$
>  <molecule>
CCCCCCCCCCNC(=O)CI

>  <growth / %>
96.8

$$$$
>  <molecule>
CC1(C)COC(=S)N1

>  <growth / %>
101

$$$$
>  <molecule>
CCc1cc(C)cc(O)c1

>  <growth / %>
105

$$$$
>  <molecule>
COc1ccc2cc1Oc1ccc(cc1)C[C@H]1c3cc(c(OC)cc3CCN1C)Oc1c(OC)c(OC)cc3c1[C@H](C2)N(C)CC3

>  <growth / %>
52.6

$$$$
>  <molecule>
O=CN1CCCCC1

>  <growth / %>
99.4

$$$$
>  <molecule>
CC(C)NC(=O)N/C=C(\C#N)C(N)=O

>  <growth / %>
99.5

$$$$
>  <molecule>
C/C(=C\c1ccccc1)c1ccccn1

>  <growth / %>
96.8

$$$$
>  <molecule>
COc1ccc(N/C=C/C2=[N+](C)c3ccccc3C2(C)C)c(OC)c1

>  <growth / %>
102

$$$$
